# Test system: dog STING (dSTING)
# experiment: Dog differential scanning fluorimetry (DSF) assay, thermal shift of dog STING protein
# Format: binding
# details: DSF (dDSF); 100 μM compound, 3 μM dog STING protein; Tm with ligand minus Tm of protein alone
readoutLabel: Delta TM (°C)
Give a bare numeral; the unit °C is implied.

Quick one: Delta TM of Cc1cccc2c(-c3cccc4nn(C)c(F)c34)nn(-c3ccc(N4CC5CCC4CC5C(=O)O)nc3)c12 (single isomer, unassigned) [Example 20-2] ?
22.6

Quick one: Delta TM of Cc1cccc2c(-c3cc(F)cc4nn(C)cc34)nn(-c3ccc(N4C[C@@H]5[C@H](C4)[C@H]5C(=O)O)nc3)c12 ?
24.8

Quick one: Delta TM of CC(=O)N1CCN(c2ccc(-n3nc(-c4cccc5nn(C)c(F)c45)c4cccc(C)c43)cn2)CC1 ?
32.5

Quick one: Delta TM of Cc1cccc2c(-c3ccc(F)c4nn(C)c(F)c34)nn(-c3ccc(N4CCC(C(=O)O)CC4)nc3)c12 ?
33.0

Quick one: Delta TM of Cc1cccc2c(-c3c(F)cc(F)c4nn(C)cc34)nn(-c3ccc(N4C[C@H]5C[C@@H]4C[C@@H]5C(=O)O)nc3)c12 (single isomer, unassigned) ?
35.5

Quick one: Delta TM of Cc1cccc2c(-c3cccc4nn(C)c(F)c34)nn(-c3ccc(N4CCN(C=O)CC4)nc3)c12 ?
28.5

Quick one: Delta TM of CC(=O)N1CCN(c2ccc(-n3nc(-c4cccc5nn(C)c(F)c45)c4ccc(F)c(C)c43)cn2)CC1 [Example 66] ?
25.8

Quick one: Delta TM of Cc1cccc2c(-c3c(F)ccc4nn(C)cc34)nn(-c3ccc(N4CC5CCC4CC5C(=O)O)nc3)c12 (single isomer, unassigned) [Example 28-1] ?
26.6

Pending molecule:
Quick one: Delta TM of Cc1c(F)ccc2c(-c3c(F)ccc4nn(C)cc34)nn(-c3ccc(N4CCC(C(=O)O)CC4)nc3)c12 ?
36.5

----------
# targetEntity: STING (Canis lupus familiaris)
# Sequence (A0A8I3MH52 1-374): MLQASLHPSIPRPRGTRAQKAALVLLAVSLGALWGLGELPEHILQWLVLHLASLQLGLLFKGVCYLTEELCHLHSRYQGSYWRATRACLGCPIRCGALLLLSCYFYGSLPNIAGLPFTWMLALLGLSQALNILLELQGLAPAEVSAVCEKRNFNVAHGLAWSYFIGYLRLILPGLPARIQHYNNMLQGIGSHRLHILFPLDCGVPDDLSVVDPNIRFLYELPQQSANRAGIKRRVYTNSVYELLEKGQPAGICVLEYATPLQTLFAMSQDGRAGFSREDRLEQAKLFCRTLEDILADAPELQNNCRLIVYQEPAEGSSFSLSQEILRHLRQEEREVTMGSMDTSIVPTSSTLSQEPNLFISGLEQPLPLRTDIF
# experiment: Dog whole blood (dWB) assay, IFNb secretion by ELISA
# details: canine Interferon-beta (IFNb) ELISA, 4 h incubation at 37° C.
Entries and their measured EC50 follow.
Give a bare numeral; the unit nM is implied.

Quick one: EC50 of Cc1cc(F)cc2c(-c3c(F)ccc4nn(C)cc34)nn(-c3ccc(N4CCC(C(=O)O)CC4)nc3)c12 [Example 62] ?
295

----------
# System: dog STING (dSTING)
# experiment: Dog differential scanning fluorimetry (DSF) assay, thermal shift of dog STING protein
# Format: binding
# details: DSF (dDSF); 100 μM compound, 3 μM dog STING protein; Tm with ligand minus Tm of protein alone
Label MET when Delta TM < 30 °C; otherwise NOT MET.

Example entries and their recorded answers appear below.
Is Delta TM of Cc1cccc2c(-c3c(F)cc(F)c4nn(C)cc34)nn(-c3ccc(N4C[C@@H]5C[C@H]4C[C@H]5C(=O)O)nc3)c12 (single isomer, unassigned) [Example 47-1] strictly below 30 °C?
NOT MET

Is Delta TM of Cc1c(F)ccc2c(-c3c(F)cc(F)c4nn(C)cc34)nn(-c3ccc(N4CCC(C(=O)O)CC4)nc3)c12 [Example 70] strictly below 30 °C?
NOT MET

Is Delta TM of Cc1cccc2c(-c3cccc4nn(C)c(F)c34)nn(-c3ccc(N4CC5CCC4CC5C(=O)O)nc3)c12 (single isomer, unassigned) [Example 20-1] strictly below 30 °C?
MET

Is Delta TM of Cc1cccc2c(-c3cccc4nn(C)c(F)c34)nn(-c3ccc(N4CCOC(CC(=O)O)C4)nc3)c12 (single isomer, unassigned) [Example 72-3] strictly below 30 °C?
MET

Is Delta TM of Cc1cccc2c(-c3ccc(F)c4nn(C)c(F)c34)nn(-c3ccc(N4CC[C@H](CC(=O)O)C4)nc3)c12 [Example 55] strictly below 30 °C?
NOT MET

Is Delta TM of Cc1c(F)ccc2c(-c3cccc4nn(C)c(F)c34)nn(-c3ccc(N4C[C@@H]5[C@H](C4)[C@H]5C(=O)O)nc3)c12 [Example 11] strictly below 30 °C?
NOT MET

Is Delta TM of Cc1cccc2c(-c3cccc4nn(C)c(F)c34)nn(-c3ccc(N4CC5CCC4CC5C(=O)O)nc3)c12 (single isomer, unassigned) [Example 20-3] strictly below 30 °C?
NOT MET

Is Delta TM of Cc1cccc2c(-c3c(F)ccc4nn(C)cc34)nn(-c3ccc(N4C[C@H]5C[C@@H]4C[C@@H]5C(=O)O)nc3)c12 [Example 27-2] strictly below 30 °C?
NOT MET

Is Delta TM of CC(=O)N1CCN(c2ccc(-n3nc(-c4cc(F)cc5nn(C)cc45)c4cccc(C)c43)cn2)CC1 [Example 40] strictly below 30 °C?
MET

Is Delta TM of Cc1cccc2c(-c3c(F)cc(F)c4nn(C)cc34)nn(-c3ccc(N4CC[C@H](CC(=O)O)C4)nc3)c12 [Example 46] strictly below 30 °C?
NOT MET

Please turn your attention to the following entry.
Is Delta TM of Cc1c(F)ccc2c(-c3c(F)cc(F)c4nn(C)cc34)nn(-c3ccc(N4C[C@@H]5[C@H](C4)[C@H]5C(=O)O)nc3)c12 [Example 69] strictly below 30 °C?
NOT MET
